Values from paper PMC10584170

Test system: P. falciparum female gametocytes
Test: P. falciparum Dual Gamete Formation Assay (PfDGFA), female readout (Pfs25-positive female gametes)
Type: cell-based, Plasmodium falciparum NF54
Conditions: number of replicates with >50% inhibition in the female readout, 2µM
Provide the reported HitlevelF of each item.
Number only, please.

Prompt: For the molecule shown here, `COc1ccc(C[C@H](N)C(=O)N[C@H]2[C@@H](O)[C@H](n3cnc4c(N(C)C)ncnc43)O[C@@H]2CO)cc1` , give the reported HitlevelF.
Completion: 1

Prompt: Another molecule to check: `O=C(NC1CCN(Cc2ccccc2)CC1)c1cc(C(=O)NC2CCN(Cc3ccccc3)CC2)cc(C(=O)NC2CCN(Cc3ccccc3)CC2)c1`
Completion: 1

Prompt: Another molecule to check: `Fc1ccc2[nH]c(-c3cccc(-c4cccc(CNCCN5CCNCC5)c4)c3)nc2c1.O=C(O)C(F)(F)F`
Completion: 0
